Molecular target: sodium channel (Nach)
Assay: Inhibition of binding of [3H]BTX-B to rat forebrain homogenates
Settings: extrapolated IC50; [3H]BTX-B binding
result-type: IC50 (µM)
// units = µM; emit number, no label

Query :: Find the recorded IC50 belonging to Nc1nnc(C2(c3cccc(F)c3)CCCC2)c(N)n1 [CEN-236] and report it.
Result :: 4

====

Target: sodium channel (Nach)
Assay: Inhibition of binding of [3H]BTX-B to rat forebrain homogenates
Conditions: extrapolated IC50; [3H]BTX-B binding
Measured IC50 values are reported for all entries that follow.
// units = µM; emit number, no label

smiles-notation: COc1ccc(C2(c3nnc(N)nc3N)CCCCC2)cc1
tested-on: sodium channel (Nach)
units-text: µM
assay-result: 1
--
smiles-notation: Nc1nnc(C(c2ccc(F)cc2)c2ccc(F)cc2)c(N)n1
tested-on: sodium channel (Nach)
units-text: µM
assay-result: 9
--
smiles-notation: Nc1nnc(C2(c3ccc(Cl)cc3Cl)CC2)c(N)n1
tested-on: sodium channel (Nach)
units-text: µM
assay-result: 8
--
smiles-notation: Nc1nnc(-c2cccc(OCc3cccc4ccccc34)c2)c(N)n1
tested-on: sodium channel (Nach)
units-text: µM
assay-result: 57
--
smiles-notation: COc1ccc(C2(c3nnc(N)nc3N)CCCC2)cc1
tested-on: sodium channel (Nach)
units-text: µM
assay-result: 3

Query :: Notebook entry, sodium channel (Nach) assay: IC50 of "Nc1nnc(C2(c3ccccc3)CCCC2)c(N)n1" = ?
Result :: 5

Query :: Notebook entry, sodium channel (Nach) assay: IC50 of "Nc1nnc(C2(c3ccccc3)CCCCC2)c(N)n1" = ?
Result :: 23

Query :: Notebook entry, sodium channel (Nach) assay: IC50 of "COc1ccc(C2(c3nnc(N)nc3N)CC2)cc1" = ?
Result :: 115

Values were extracted from patent US8748600B2.
